# System: DRIVER-selected RNA biosensor (aptazyme) pool
# assay_summary: maximum fold change of ribozyme cleavage across biosensor pool versus no-compound control; higher = stronger biosensor response (ligand inhibits cleavage)
# condition_info: 10 µM
maximum fold change class ranges: lower range: < 2; middle range: ≥ 2 and < 3; upper range: ≥ 3

{"columns": ["molecule", "discrete_label"],
 "data": [
  ["c1sc2c(c1CN1CCC3(CC1)OCCO3)CCCC2", "middle range"]
]}

Input `CCOC(=O)/C(=CC=CN1CCOCC1)/C(=O)C` ; output its category
lower range

Input CCc1ccc2oc(C(=O)N(Cc3ccccc3F)C3CCS(=O)(=O)C3)c(C)c2c1 (centres undefined) ; output its category
upper range

###

# Tested on: DRIVER-selected RNA biosensor (aptazyme) pool
# assay_summary: maximum fold change of ribozyme cleavage across biosensor pool versus no-compound control; higher = stronger biosensor response (ligand inhibits cleavage)
# condition_info: 10 µM
I would appreciate it if you labelled entries Criterion met when maximum fold change is 3 or higher, otherwise Criterion not met.

Known results for molecules:
{"columns": ["molecule", "system_under_test", "discrete_label"],
 "data": [
  ["CCOC(=O)N1CCN(c2cnn(-c3nc4ccccc4s3)c(=O)c2Cl)CC1", "DRIVER-selected RNA biosensor (aptazyme) pool", "Criterion met"],
  ["COC(=O)/C(C#N)=C/c1c(Oc2ccccc2Cl)nc2ccccn2c1=O", "DRIVER-selected RNA biosensor (aptazyme) pool", "Criterion met"],
  ["COc1ccc(CCn2c(SCC(=O)Nc3cc(C)n[nH]3)nc3ncccc3c2=O)cc1OC", "DRIVER-selected RNA biosensor (aptazyme) pool", "Criterion met"],
  ["Cc1ccc(S(=O)(=O)NCC2CCC(C(=O)NCC(C)c3ccccc3)CC2)cc1 (configuration not stated)", "DRIVER-selected RNA biosensor (aptazyme) pool", "Criterion met"],
  ["Cc1ccc2c(CNC3CCC(C)CC3)c(C(=O)O)n(Cc3ccccc3F)c2c1 (configuration not stated)", "DRIVER-selected RNA biosensor (aptazyme) pool", "Criterion not met"]
]}

Would you say Cc1cc2c(c(=O)n1CCN(C)C)C(c1cccc(Br)c1)C(C#N)=C(N)O2 (configuration not stated) shows maximum fold change at minimum 3?
Criterion not met

Would you say C=Cc1ccc(Cn2c(C(=O)O)c(CNCC3CCCO3)c3ccc(C)cc32)cc1 (configuration not stated) shows maximum fold change at minimum 3?
Criterion not met

Would you say `C=Cc1ccc(Cn2c(C(=O)O)c(CNCc3ccco3)c3ccc(C)cc32)cc1` shows maximum fold change at minimum 3?
Criterion not met

Would you say `COc1ccc(OC)c(/C=C2/N=C(c3cccc(Cl)c3Cl)OC2=O)c1` shows maximum fold change at minimum 3?
Criterion met

Would you say `CCOc1ccc2c(c1)[N+](C)=C(/C=C/c1ccc(C(=O)OC)cc1)C2(C)C` shows maximum fold change at minimum 3?
Criterion not met

Would you say CC(C)CC(NC(=O)/C(=C/c1ccco1)NC(=O)c1ccc(Br)o1)C(=O)O (configuration not stated) shows maximum fold change at minimum 3?
Criterion not met

Would you say `CC(=Cc1ccccc1)/C=C1N=C(/C=C/c2ccccc2)OC/1=O` shows maximum fold change at minimum 3?
Criterion not met

Would you say `COc1ccc(C=C2C(=O)c3ccccc3C2=O)c(C)c1` shows maximum fold change at minimum 3?
Criterion not met

Would you say `COc1ccc(CCNC(=O)c2nnc(Cc3ccc(Cl)cc3Cl)o2)cc1OC` shows maximum fold change at minimum 3?
Criterion not met

Would you say `Cc1cc(C2C(=O)c3ccccc3C2=O)nc2ccccc12` shows maximum fold change at minimum 3?
Criterion met

Would you say `COc1ccc(C=C2C(=O)c3ccccc3C2=O)cc1O` shows maximum fold change at minimum 3?
Criterion met

Would you say `CCN1CCN(C(=O)c2cc(C)nn2-c2ccccc2)CC1` shows maximum fold change at minimum 3?
Criterion not met

Would you say `CCCCOc1ccc(CNC2=NS(=O)(=O)C(c3ccc(C(C)C)cc3)=C2C)cc1` shows maximum fold change at minimum 3?
Criterion met

Would you say `CC(C)CN(CC(C)C)c1nnc(NC(=O)NCc2ccco2)s1` shows maximum fold change at minimum 3?
Criterion not met

Would you say `COc1ccc(cc1C1=N/C(=CNc2ccccn2)/C(=O)O1)Cl` shows maximum fold change at minimum 3?
Criterion met

###

# System: DRIVER-selected RNA biosensor (aptazyme) pool
# assay_summary: maximum fold change of ribozyme cleavage across biosensor pool versus no-compound control; higher = stronger biosensor response (ligand inhibits cleavage)
# condition_info: 10 µM
I would appreciate it if you labelled entries true (1) when maximum fold change is 3 or higher, otherwise false (0).

Known results for molecules:
{"columns": ["molecule", "system_under_test", "discrete_label"],
 "data": [
  ["Cc1oc2ncn3c(C)nnc3c2c1C(=O)NC1CC1", "DRIVER-selected RNA biosensor (aptazyme) pool", "false (0)"],
  ["CCOC(=O)C1=C(C)NC2=C(C(=O)c3ccccc32)C1c1ccc(C(F)(F)F)cc1 (stereo not drawn)", "DRIVER-selected RNA biosensor (aptazyme) pool", "false (0)"],
  ["c1ccc(-c2nc3cc(Oc4ccc5[nH]c(-c6ccccn6)nc5c4)ccc3[nH]2)nc1", "DRIVER-selected RNA biosensor (aptazyme) pool", "false (0)"],
  ["CCOC(=O)c1ccc(S(=O)(=O)N2CCOCC2)cc1", "DRIVER-selected RNA biosensor (aptazyme) pool", "false (0)"],
  ["COc1ccc(-c2cc3c(=O)n(CC(=O)NCc4ccccn4)ncn3n2)cc1", "DRIVER-selected RNA biosensor (aptazyme) pool", "true (1)"],
  ["COc1ccc(Br)cc1CNCc1sc(C(=O)O)cc1C", "DRIVER-selected RNA biosensor (aptazyme) pool", "true (1)"]
]}

Would you say `O=C(NCC(=O)N1CCOCC1)c1ccccc1` shows maximum fold change at minimum 3?
false (0)

Would you say `Cc1ccc2[nH]c(=O)c3cc(C(=O)NCCCN(C)Cc4ccccc4)sc3c2c1` shows maximum fold change at minimum 3?
true (1)

###

# Tested on: DRIVER-selected RNA biosensor (aptazyme) pool
# assay_summary: maximum fold change of ribozyme cleavage across biosensor pool versus no-compound control; higher = stronger biosensor response (ligand inhibits cleavage)
# condition_info: 10 µM
recorded_endpoint: maximum fold change
Just the number, please.

# example entries with known answers
{"columns": ["compound", "maximum fold change"],
 "data": [
  ["COc1cc(CNc2ncc(-c3ccccc3)n2C)cc(OC)c1OC", 1.75],
  ["COc1ccc2c(c1)c(C(=O)O)c(C)n2CCc1ccc(OC)c(OC)c1", 2.38],
  ["CCN1CCN(CCCNC(=O)c2ccc3c(c2)NC(=O)/C(=C/C(=O)c2ccc(OC)cc2)N3)CC1", 8.68],
  ["Cc1ccc(CNCc2c(C(=O)O)c(C)n(Cc3ccccc3C)c2C)o1", 3.25],
  ["COCCNC(=S)NCc1ccc2[nH]c(C)cc2c1", 2.32]
]}

# compound `COc1ccccc1OCCCn1cccc1/C=C1\C(=N)N2N=C(N3CCOCC3)SC2=NC1=O` ; its maximum fold change = 2.03

# compound `Cc1ccc(C(=O)N(Cc2ccccc2)c2ccccn2)cc1` ; its maximum fold change = 2.65

# compound `CC1(C)CC(=O)C(=Cc2c[nH]c3ccccc23)C(=O)C1` ; its maximum fold change = 2.44

# compound `O=C(c1cc(-c2ccccc2)n[nH]1)N1CCc2ccccc2C1` ; its maximum fold change = 4.06

# compound `N#C/C(=Cc1c(Oc2ccc(cc2)Br)nc2n(c1=O)cccc2)/C(=O)NC1CCCCC1` ; its maximum fold change = 2.99

# compound `COc1ccccc1/C=C1N=C(c2ccc(Cl)c(Cl)c2)OC1=O` ; its maximum fold change = 3.36

# compound `Cc1c(C(=O)N2CCN(C)CC2)sc2ncnc(N3CCN(c4ccccn4)CC3)c12` ; its maximum fold change = 2.67

# compound `COc1ccc(-c2c(C)nn3c(N)c(C#N)cnc23)cc1OC` ; its maximum fold change = 4.07

# compound CCOC(=O)C1=C(C)NC(=S)NC1c1ccc(O)c(OC)c1 (centres undefined) ; its maximum fold change = 3.37

###

# Tested on: DRIVER-selected RNA biosensor (aptazyme) pool
# assay_summary: maximum fold change of ribozyme cleavage across biosensor pool versus no-compound control; higher = stronger biosensor response (ligand inhibits cleavage)
# condition_info: 10 µM
maximum fold change listing for selected compounds.
Just the number, please.

# example entries with known answers
{"columns": ["compound", "maximum fold change"],
 "data": [
  ["Cc1ccc(CNc2nc3ccc(C)cc3n3cnnc23)cc1", 2.77],
  ["Cc1ccc(-c2noc(CCC(=O)N3CCN(Cc4ccccc4)CC3)n2)cc1", 3.6],
  ["COc1ccc(S(=O)(=O)Nc2cccnc2)cc1", 2.43],
  ["COCCNC(=O)C1c2ccccc2C(=O)N(CCOC)C1c1c[nH]c2ccccc12 (stereo unspecified)", 2.7],
  ["Cc1ccc(NC(=O)c2cc3c(=O)oc4ccccc4c3s2)nc1", 6.76]
]}

Consider the additional compound presented here.
# compound Cc1c(CNC(C)CCc2ccccc2)c(C(=O)O)c(C)n1Cc1cccc(Cl)c1 (stereo unspecified) ; its maximum fold change = 4.02
